assay: NCI Yeast Anticancer Drug Screen. Data for the sgs1 mgt1 strain (AID 161);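 further: 0% = growth of cultures given vehicle only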; settings: S. cerevisiae sgs1 mgt1 strain, at 50.0 µM, hits give high values
The panel holds about 79,000 compounds, 15% with a hit somewhere; the sample as a whole holds those more often.
readoutKind: growth inhibition (%)

1. CCOC(=O)C1=C(NC(C)(C)C)OCC1=O ... -2.2
2. CCC1(CC)COC2(CCC(C)CC2)OC1 ... -5.05
3. O=C1c2ccccc2C(=O)c2c(Nc3ccc(Nc4cccc5c4C(=O)c4ccccc4C5=O)c4c3C(=O)c3ccccc3C4=O)cccc21 ... 4.7
4. NC(N)=NS(=O)(=O)c1ccc(N)cc1 ... 26.4
5. Cc1c(C)n(COCCO)c2ncnc(N)c12 ... -23.6
6. CCCCCCCCCCCCCCCCCC(=O)OCC1OC(OC)C(NC(=O)N(CCCl)N=O)C(O)C1O (centres undefined) ... -4.8
7. Nc1nnnn1-c1cccc(Cl)c1 ... 1.6
8. CC(=O)Nc1ccc(S(=O)(=O)Nc2ccc([N+](=O)[O-])cc2)cc1 ... -22.8
9. N#CC(N)(C(=O)CCC(=O)Nc1cccc(Cl)c1)c1ccc(Cl)cc1 (centres undefined) ... 7.7
10. CC(=O)c1c(Cl)cc(Cl)c(Cl)c1Cc1c(Cl)c(Cl)cc(Cl)c1C(C)=O ... 7
11. O=C(NC1CCCCC1)Oc1ccc(Cl)cc1Cl ... 28.2
12. CCOC(NC(=O)CC)(C(F)(F)F)C(F)(F)F ... -49.9
13. Cc1nn(-c2ccccc2)c(=O)n2c1nc1ccccc12 ... 20.9
14. COc1ccc(/C=C2\CCC(C)(CN(C)C)C2=O)cc1 (centres undefined) ... 8.15
15. CN(C)C1=NC(NCc2ccccc2)(N(C)C)OC(N(C)C)=N1 (centres undefined) ... 0.55
16. CC(C)(C)CC(C)(C)N ... -16.9
17. O=C(c1ccccc1)c1cccc(C(=O)c2ccccc2)n1 ... -17.7
18. CC(=O)NNc1ccc(C(=O)O)cc1 ... 1.85
19. CCCOC(=O)NC(C)C(=O)NC(CCC(=O)NC(CCCC(N)C(=O)O)C(=O)NC(C)C(=O)O)C(=O)O (centres undefined) ... -37.6
20. COc1ccc([N+](=O)[O-])c(C(OC(C)=O)OC(C)=O)c1OC(C)=O ... 20.2
21. Nc1ccc(S(=O)(=O)Nc2cnc3c(Cl)cccc3n2)cc1 ... 10.9
22. NC(CCCNCc1ccccc1)C(=O)O (centres undefined) ... 1.65
23. O=C(CC1C(=O)Nc2ccccc2S1(=O)=O)Nc1cc(Cl)ccc1Cl (centres undefined) ... 7.25
24. CCCCCCCCCCNCC(=O)O ... -1.65

* * *

assay: NCI Yeast Anticancer Drug Screen. Data for the mlh1 rad18 strain (AID 175); conditions: S. cerevisiae mlh1 rad18 strain growth inhibition; at 50.0 µM; hits give high values
This is part of a sample that, as a whole, favours compounds with a hit. Of some 79,000 tested, about 15% had one in any assay.
readoutKind: growth inhibition (%)

1. COc1ccc(C(=O)c2ccccc2)c(OC(=O)Nc2c(Cl)cccc2Cl)c1 ... 22.6
2. CC(=O)N1c2ccccc2C(C)(C)C1O (centres undefined) ... 3.7
3. CC1(C)C(=O)OC(n2ccc(=O)[nH]c2=O)C1=O (centres undefined) ... 12.7
4. CN(C)c1ccc(/C=C(\C#N)c2c(Br)cccc2Br)cc1 ... -14.7
5. O=C1c2ccccc2C(=O)c2c(Nc3ccc(Nc4cccc5c4C(=O)c4ccccc4C5=O)c4c3C(=O)c3ccccc3C4=O)cccc21 ... -26.8
6. Cc1c(Cl)cccc1NC(=O)Oc1ccc(Cl)cc1 ... -4.05
7. CC1(C)CN(CCC#N)C(c2ccc([N+](=O)[O-])cc2)O1 (centres undefined) ... -14.8
8. O=C(O)C(Cc1ccccc1)N1C(=O)c2ccccc2C1=O (centres undefined) ... 5.55
9. O=C(O)C1(C(=O)O)CC2C3C=CC(C3)C2C1 (centres undefined) ... 20.5
10. CCCCN(CCCC)c1ccc(N=C(C#N)c2ccc(N(CCCC)CCCC)cc2)cc1 ... 19.5
11. COC(=O)C1(O)CCC(C)CC1 (centres undefined) ... 14.8
12. Nc1nc(SCC(=O)O)nc2nc[nH]c12 ... 4.95
13. O=C(CC(=O)c1ccc(Cl)s1)C(=O)NC1C2CC3CC(C2)CC1C3 (centres undefined) ... 3.55
14. COc1ccc(-c2nc(SCC(=O)O)n(-c3ccccn3)c2-c2ccc(OC)cc2)cc1 ... 77.7
15. CCCCN1C(=O)CC2[C@@H]3CCc4cc(OC)ccc4C3CC[C@]2(C)C1=O (some centres undefined) ... 14.4
16. COc1cccc(C(N)=O)c1OC ... -15.2
17. CNC(=O)C(c1ccccc1)C(O)c1ccccc1 (centres undefined) ... -10.5
18. C=CCOC(=O)NC(CCC(=O)OC)C(=O)O (centres undefined) ... -0.2
19. C=CC(=O)NC(C)C(=O)O (centres undefined) ... -4.15
20. COc1ccc(C2OC(C)C(C)O2)cc1 (centres undefined) ... -8
21. S=C(Nc1ccccc1)Nc1ccc(NC(=S)Nc2ccccc2)cc1 ... -52.2
22. O=C(CBr)c1c2c(cc3c1CCCC3)CCCC2 ... -16.6
23. CC12CCC(=O)N1[C@@H](c1ccccc1)[C@@H](c1ccccc1)O2 (some centres undefined) ... 5.9
24. CSc1nc(C)c2c(n1)N(c1ccc(Cl)cc1)CC2 ... -30.4

* * *

assay: NCI Yeast Anticancer Drug Screen. Data for the sgs1 mgt1 strain (AID 161);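 further: 0% = growth of cultures given vehicle only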; details: S. cerevisiae sgs1 mgt1 strain, at 50.0 µM, hits give high values
The panel holds about 79,000 compounds, 15% with a hit somewhere; the sample as a whole holds those more often.
Measured growth inhibition of individual entries
readoutKind: growth inhibition (%)

1) O=C(O)c1c(Br)c(Br)c(Br)c(Br)c1C(=O)Nc1cccc2c(O)cccc12 ... 25.2
2) O=C1c2ccc(O)cc2OC(c2ccc(O)c(O)c2)C1O (configuration not stated) ... 17.8
3) O=C1c2c(-c3ccccc3)ccc(-c3ccccc3)c2C2(O)OC1(O)c1c(-c3ccccc3)ccc(-c3ccccc3)c1C2=O ... 9.1
4) COc1cc(OC)c2nc(C)c3c(c2c1)SCC3 ... 5.25
5) O=C1CSC(=S)N1c1ccccc1 ... -3.6
6) COc1ccc(OC)c(/C=C/c2ccc(NC(=O)C(Cl)(Cl)Cl)cc2)c1 ... -12.2
7) COc1ccc(C2c3cc4c(cc3OC3(O)CCCC(=O)C23)OCO4)cc1 (configuration not stated) ... 4.55
8) CCC(C)(S)CN (configuration not stated) ... -7.35
9) Nc1nnc(Cc2cccc3ccccc23)o1 ... -13.1
10) CC(C)(C)OC(=O)N(CCCCN(CCCNC(=O)C(F)(F)F)C(=O)OC(C)(C)C)CCCNC(=O)C(F)(F)F ... -14.3
11) COC(=O)C(CNc1ccc(S(N)(=O)=O)cc1)=[N+]=[N-] ... 0.95
12) CCCCCCCCCCCCCCCCCC(=O)NCC[N+](C)(C)C ... 99.4
13) CCN1CCCCC(=N\O)/C(=N/O)CCCC1 ... -20.1
14) CC(=N\NS(=O)(=O)c1ccc(C)cc1)/C(C)=N/NS(=O)(=O)c1ccc(C)cc1 ... 12.8
15) Cc1ccc(S(=O)(=O)N/N=C2/CCC(C(C)(C)C)CC2Br)cc1 (configuration not stated) ... -6.35
16) C=CCOC(=O)NCC(=O)NC(C)C(N)=O (configuration not stated) ... -19.1
17) O=C(/C=C/c1ccccc1)CC(=O)c1ccccc1.O=C(/C=C/c1ccccc1)CC(=O)c1ccccc1.[Cu] ... -15.7
18) C#CC(C)(C)OCC(O)CCl (configuration not stated) ... 1.65
19) Cc1ccc(S(=O)(=O)NCc2cccc([N+](=O)[O-])c2)cc1 ... -13.6
20) c1cc2c([nH]1)CCCC2 ... 2.45
21) CCOc1ccc(NC(=O)C(=O)C(/C(=N/N)C(=O)OC)c2nc3ccc([N+](=O)[O-])cc3[nH]c2=O)cc1 (configuration not stated) ... 3.5
22) Cc1ccc2c(c1)CCC(=O)O2 ... -1.75
23) CCCCOC(=O)NC(=O)c1cc2cc(I)cc(I)c2oc1=O ... -7.75
24) O=C1C=C(Nc2ccccc2)c2ccc(S(=O)(=O)O)cc2C1=O ... 10.1
25) C(=C1c2c(ccc3ccccc23)Oc2ccc3ccccc3c21)c1ccccc1 ... 12.3
26) CC(=O)Nc1ccc(OC(=O)Nc2ccc(C)c(NC(=O)Oc3ccc(NC(C)=O)cc3)c2)cc1 ... 6.15
27) CNC(=S)SCc1ccc(Cl)cc1 ... 11.4
28) CC(=O)OCc1cocc1COC(C)=O ... 20.4
29) Cc1nc(-c2ccc([N+](=O)[O-])cc2)cn2c1nc1ccccc12 ... -34.1
30) Cc1ccccc1SCC(N)=O ... -0.85
31) Cc1ccc(F)c(N)c1 ... 24.1
32) COc1cc2c(c(OC)c1OC)CCC1(C)C(=O)NN=C21 (configuration not stated) ... 23.5
33) CC(C)(C)NC(=O)Oc1ccc(Br)cc1Br ... 18.6
34) Clc1ccc2c(c1)nnn1nccc21 ... -9.8
35) Nc1ccc(OCC(O)N2C(=O)c3ccccc3C2=O)cc1 (configuration not stated) ... -32.9
36) [O-][N+](=Nc1ccccc1)c1ccccc1 ... 35.9
37) Cc1ccc(SC(=O)Cc2ccc([N+](=O)[O-])cc2)cc1 ... 98.2
38) CC(=O)OC[C@@H](OC(C)=O)[C@@H](OC(C)=O)[C@H]1OC[C@@H]2C[C@H]([C@H]1OC(C)=O)N(Cc1ccccc1)O2 ... -7.75
39) O=C(O)c1ccc(C2C3C=CC(C3)C2[N+](=O)[O-])cc1 (configuration not stated) ... -20.2
40) CC1(C)OCC(Cc2ccc3c(c2)OCO3)CO1 ... -5.75
41) S=C(Nc1ccccc1)Nc1ccc(NC(=S)Nc2ccccc2)cc1 ... -3.6
42) Cc1cccc(C(=O)OC2CCCCC2)c1 ... -3.1
43) CC1(C)CC2=C(SC3C=CC=CC3N2)C(=O)C1C(=O)C(N)=O (configuration not stated) ... -5.05
44) COC(=O)NC1=Nc2ccc(Cl)cc2NS1 ... -25.1
45) CC1(C)C=CC(=NO)C=C1 ... -5.95
46) O=C(Nc1ccc(Cl)cc1)/C(Cc1cccc[n+]1[O-])=N\Nc1ccc([N+](=O)[O-])cc1[N+](=O)[O-] ... -6.2
47) COc1ccc2c(c1OC(C)=O)C1=CC(OC(C)=O)=CCC13CCN(C)C3C2 (configuration not stated) ... -10.8
